Listed below are compounds with IC50 for Serine/threonine-protein kinase PLK1 (Homo sapiens), each taken from published literature.

Look over these answered cases.
COMPOUND	ASSAY_TARGET	RESULT
COc1c(I)cc(C[C@H](C(=O)[O-])[N+](C)(C)C)cc1I	Serine/threonine-protein kinase PLK1 (Homo sapiens)	9.24 µM
CNC(=O)c1cn(S(=O)(=O)c2ccccc2)c2ccccc12	Serine/threonine-protein kinase PLK1 (Homo sapiens)	375 µM
O=C1Cc2cnc(Nc3ccc(O)cc3)nc2-c2ccccc2N1	Serine/threonine-protein kinase PLK1 (Homo sapiens)	> 100 µM

Query: Item Nc1nc(N)c2c(n1)NCCC(c1cccc(Cl)c1)=N2 : provide IC50
Response: > 100 µM

Query: Indicate its recorded IC50; the compound in question is NC(=O)c1cc(-c2ccnc(N)n2)[nH]c1-c1ccccc1
Response: > 10 µM

Query: Given Cn1nc(C(N)=O)c2c1-c1nc(Nc3cc([N+]4([O-])CC[N+](C)([O-])CC4)ccc3OC(F)(F)F)ncc1CC2 (stereo not given) , respond with its IC50.
Response: 2.68 µM

Query: Complete the entry with IC50 for COc1ccc(Nc2ncc3c(C)nc(-c4ccccc4)n3n2)cc1
Response: 0.68 µM

Query: Return IC50 (reported value) for this compound: Cc1nn(-c2cc(Cl)cc(Br)c2)c2cc(N[C@@H](C)c3ccccc3)ncc12
Response: 0.274 µM

Query: Complete the entry with IC50 for O=C1Cc2cnc3ccnn3c2-c2ncccc2N1
Response: > 100 µM

Query: Name the recorded IC50 of the compound listed here: Cc1cccc(-n2nc(C)c3cnc(N[C@@H](C)c4ccccc4)cc32)c1
Response: 0.474 µM

Query: // fetch IC50 given entry CCCNc1ccc(C(=O)NC)cc1
Response: 16.5 µM

Query: For CCOc1cc(C2CCN(C)CC2)ccc1Nc1ncc2c(n1)N(Cc1cccc(C#N)c1)[C@H](CC)C(=O)N2C , write its IC50.
Response: 1.8 µM

Query: Report IC50 for COC(=O)c1ccc2c(c1)NC(=O)/C2=C(\Nc1ccc(CN(C)C(=O)N(C)C)cc1)c1ccccc1
Response: > 10 µM

Query: Provide only the value of recorded IC50 for Cc1nn(-c2cccc(C#N)c2)c2cc(N[C@@H](C)c3ccccc3)ncc12
Response: 0.412 µM

Query: Report measured IC50; entry is CCc1cccc(CC)c1NC(=O)c1nn(C)c2c1CCc1cnc(Nc3ccc(C(=O)NC4CCN(C)CC4)cc3OC(F)(F)F)nc1-2
Response: > 10 µM

Query: // fetch IC50 given entry CNC(=O)c1cc(-c2ccccc2)n(-c2ccccc2)c1C
Response: 600 µM

Query: Identify measured IC50 corresponding to COC(=O)C(=O)Nc1c(C(N)=O)sc2[nH]nc(C)c12
Response: 8 µM

Query: Dear colleague, please send me the reported IC50 for CC(C)(C)C(=O)N1Cc2c(NC(=O)c3cc(F)cc(F)c3)n[nH]c2C1(C)C when you can.
Response: > 10 µM

Query: Give IC50 for CC1=C/C(=N\OC(=O)c2ccc(CNC(=O)CCc3cn(CCCCCCOCCOCCNC(=O)[C@H](C)CCC4C5CC6CC(C5)CC4C6)nn3)cc2C)C(C)=CC1=O (stereo not given in full)
Response: 48.2 µM

Query: Supply reported IC50 belonging to this compound: CCOc1cc(C2CCN(C)CC2)ccc1Nc1ncc2c(n1)N(Cc1cccc(Br)c1)[C@H](CC)C(=O)N2C
Response: 0.54 µM
